Just for reference, PubChem BioAssay (NCI) is where these values come from.

- Tested on: MCF7 breast
- Experiment Summary: NCI-60 one-dose screen, 48 h (100 = growth as untreated, 0 = no growth, -100 = all killed)
- Experimental Context: 10 µM unless noted
This is part of a sample that, as a whole, favours compounds with a hit. Of some 83,000 tested, about 20% had one in any assay.
Consider the following molecules; for each one, report its growth.
State the answer as a number, implicitly in %.

Look up growth for this molecule: NC(=S)N1N=C(c2ccc(Cl)cc2)CC1c1cc2ccccc2[nH]c1=O (configuration not stated)
95.5

// repeat for "COc1ccccc1/C=C/C(=O)CCC(=O)O" and report
102

Same question, "O=C(Nc1ccc(Br)cc1)c1ccc(Cl)c(Cl)c1" this time
20.1

What do you get for "COc1ccc2c(c1)sc1nc(-c3ccccc3)c(-c3cccc4ccccc34)n12" ?
27.7

"CCN(CC)c1ccc(/C=N/NC(=O)c2ccc(S(C)(=O)=O)cc2)c(O)c1" ?
8.79

Same question, "O=C(N/N=C/c1ccc([N+](=O)[O-])cc1)c1ccccc1Nc1ccnc(C(F)(F)F)c1" this time
95

Would you kindly repeat that for "COC(=O)CSc1ccc(Cl)cc1" ?
97.2

Try this molecule too: CCN(CC)CCCC(C)Nc1c(-c2ccccc2)cnc2cc(Cl)ccc12 (configuration not stated)
59.1

Repeat for the following molecule: "CSC1=N/C(=C\c2cccc(OCc3ccc(Cl)cc3)c2)C(=O)N1"
83

Proceed to "COc1ccc(Oc2nc(Nc3ccc(N4CCOCC4)cc3)ncc2NC(=O)Nc2cccc(OC)c2)cc1"
88.6

Follow-up item: "C(=Nc1ccc(-c2ccc(N=Cc3ccccc3)cc2)cc1)c1ccccc1"
89.9

Also need "COc1ccc([C@H]2c3[nH]c4ccccc4c3C[C@H]3C(=O)N(CCCCCCC(=O)NO)CC(=O)N23)cc1" , thanks.
29.9

Moving on to the next molecule: "CCN(CC)c1ccc(/C=N/N=C(N)N)cc1"
15.4

# iterate: "O=C(CSc1nc2c(n1Nc1ccccc1)-c1ccccc1SC2)Nc1nccs1"
96.3

Also CC(=O)C1CCC2C3CC(C)=C4CC(O)CCC4(C)C3CCC12C (configuration not stated) , if possible.
100

What do we get for CCCCSc1ncnc2c1ncn2C1CCCCO1 (configuration not stated) ?
91.5

Then "COc1cc(/C=C\c2cc(/C=C\c3ccc(O)c(OC)c3)n(C(=O)Nc3ccc(C(F)(F)F)cc3)n2)ccc1O" ?
22.9

Moving on to "CCCCCCCCN=C(NCCCCCCCC)SCc1cccc2ccccc12"
-88.9

Now consider "CCCC(CCC)(C(N)=O)C(=O)O" .
109

Same read-out for "CC(C)CCSc1nc(Nc2ccccc2)c(C#N)c(-c2ccc(F)cc2)n1" ?
65.2

What would you report for "CC(C)(C)c1cc(C[P+](c2ccccc2)(c2ccccc2)c2ccccc2)cc(C(C)(C)C)c1O" ?
3.43

What about "Cc1ccsc1C(=O)CC(=O)C(F)(F)C(F)(F)C(F)(F)F" ?
96.6
